Target: Voltage-gated N-type calcium channel alpha-1B subunit/Amyloid beta A4 precursor protein-binding family A member 1 (Homo sapiens, UniProt Q00975+Q02410)
Sequence (Q00975 whole entry): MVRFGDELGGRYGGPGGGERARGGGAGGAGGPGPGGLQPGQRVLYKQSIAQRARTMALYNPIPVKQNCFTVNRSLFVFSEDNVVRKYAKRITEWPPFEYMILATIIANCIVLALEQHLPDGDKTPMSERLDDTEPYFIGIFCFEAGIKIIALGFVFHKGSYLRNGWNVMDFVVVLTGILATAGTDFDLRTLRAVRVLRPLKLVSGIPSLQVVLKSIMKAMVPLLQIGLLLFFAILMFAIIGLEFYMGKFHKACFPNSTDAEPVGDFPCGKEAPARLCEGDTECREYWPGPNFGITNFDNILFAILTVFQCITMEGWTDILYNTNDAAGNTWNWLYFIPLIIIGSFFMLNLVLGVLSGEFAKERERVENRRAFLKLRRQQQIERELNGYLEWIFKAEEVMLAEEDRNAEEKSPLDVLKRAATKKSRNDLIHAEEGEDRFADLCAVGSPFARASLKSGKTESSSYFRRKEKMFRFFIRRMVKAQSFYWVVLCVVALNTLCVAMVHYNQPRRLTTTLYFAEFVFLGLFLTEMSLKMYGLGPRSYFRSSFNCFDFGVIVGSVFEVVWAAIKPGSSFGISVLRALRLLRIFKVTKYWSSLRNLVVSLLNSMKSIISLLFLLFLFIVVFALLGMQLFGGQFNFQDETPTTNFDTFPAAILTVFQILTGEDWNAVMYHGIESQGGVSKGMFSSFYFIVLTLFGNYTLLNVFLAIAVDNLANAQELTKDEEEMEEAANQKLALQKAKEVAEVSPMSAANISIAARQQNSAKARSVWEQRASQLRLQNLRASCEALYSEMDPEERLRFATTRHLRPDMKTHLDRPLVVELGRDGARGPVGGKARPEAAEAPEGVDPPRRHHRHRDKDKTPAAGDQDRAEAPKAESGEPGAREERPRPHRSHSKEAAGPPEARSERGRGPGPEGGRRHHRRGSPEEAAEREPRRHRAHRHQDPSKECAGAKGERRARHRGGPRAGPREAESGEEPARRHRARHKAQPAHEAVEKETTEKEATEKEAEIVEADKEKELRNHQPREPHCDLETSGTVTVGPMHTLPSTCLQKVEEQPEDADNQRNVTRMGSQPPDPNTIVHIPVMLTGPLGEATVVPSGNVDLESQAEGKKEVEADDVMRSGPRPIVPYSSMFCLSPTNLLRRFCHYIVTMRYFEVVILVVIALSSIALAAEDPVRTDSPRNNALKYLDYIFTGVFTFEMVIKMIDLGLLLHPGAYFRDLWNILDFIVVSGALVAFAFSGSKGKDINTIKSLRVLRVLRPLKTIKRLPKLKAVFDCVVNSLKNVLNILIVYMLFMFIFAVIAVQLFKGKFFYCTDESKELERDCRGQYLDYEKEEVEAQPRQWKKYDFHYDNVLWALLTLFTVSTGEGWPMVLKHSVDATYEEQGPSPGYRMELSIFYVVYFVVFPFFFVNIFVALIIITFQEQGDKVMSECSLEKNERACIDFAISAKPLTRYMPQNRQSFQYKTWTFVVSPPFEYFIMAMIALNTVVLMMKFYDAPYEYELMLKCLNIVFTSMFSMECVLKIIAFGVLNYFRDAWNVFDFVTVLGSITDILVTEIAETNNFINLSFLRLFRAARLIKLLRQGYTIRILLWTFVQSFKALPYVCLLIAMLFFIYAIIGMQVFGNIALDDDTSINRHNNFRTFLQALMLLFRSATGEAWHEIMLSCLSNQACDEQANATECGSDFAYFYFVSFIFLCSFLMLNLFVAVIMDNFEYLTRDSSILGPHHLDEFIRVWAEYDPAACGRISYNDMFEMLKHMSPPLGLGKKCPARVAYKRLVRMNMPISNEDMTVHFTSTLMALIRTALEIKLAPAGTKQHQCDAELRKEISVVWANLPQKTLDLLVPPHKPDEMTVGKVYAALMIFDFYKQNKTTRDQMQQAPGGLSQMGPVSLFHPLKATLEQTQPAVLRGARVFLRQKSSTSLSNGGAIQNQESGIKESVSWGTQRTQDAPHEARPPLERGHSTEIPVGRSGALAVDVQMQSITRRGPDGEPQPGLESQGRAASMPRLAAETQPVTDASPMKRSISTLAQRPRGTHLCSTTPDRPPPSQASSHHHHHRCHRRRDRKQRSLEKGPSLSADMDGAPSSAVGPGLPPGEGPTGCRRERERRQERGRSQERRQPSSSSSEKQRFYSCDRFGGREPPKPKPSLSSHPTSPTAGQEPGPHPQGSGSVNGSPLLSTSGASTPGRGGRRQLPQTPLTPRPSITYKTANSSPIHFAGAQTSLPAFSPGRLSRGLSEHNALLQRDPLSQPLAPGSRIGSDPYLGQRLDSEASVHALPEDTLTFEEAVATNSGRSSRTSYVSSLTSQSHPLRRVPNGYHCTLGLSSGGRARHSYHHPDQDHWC
Sequence (Q02410 whole entry): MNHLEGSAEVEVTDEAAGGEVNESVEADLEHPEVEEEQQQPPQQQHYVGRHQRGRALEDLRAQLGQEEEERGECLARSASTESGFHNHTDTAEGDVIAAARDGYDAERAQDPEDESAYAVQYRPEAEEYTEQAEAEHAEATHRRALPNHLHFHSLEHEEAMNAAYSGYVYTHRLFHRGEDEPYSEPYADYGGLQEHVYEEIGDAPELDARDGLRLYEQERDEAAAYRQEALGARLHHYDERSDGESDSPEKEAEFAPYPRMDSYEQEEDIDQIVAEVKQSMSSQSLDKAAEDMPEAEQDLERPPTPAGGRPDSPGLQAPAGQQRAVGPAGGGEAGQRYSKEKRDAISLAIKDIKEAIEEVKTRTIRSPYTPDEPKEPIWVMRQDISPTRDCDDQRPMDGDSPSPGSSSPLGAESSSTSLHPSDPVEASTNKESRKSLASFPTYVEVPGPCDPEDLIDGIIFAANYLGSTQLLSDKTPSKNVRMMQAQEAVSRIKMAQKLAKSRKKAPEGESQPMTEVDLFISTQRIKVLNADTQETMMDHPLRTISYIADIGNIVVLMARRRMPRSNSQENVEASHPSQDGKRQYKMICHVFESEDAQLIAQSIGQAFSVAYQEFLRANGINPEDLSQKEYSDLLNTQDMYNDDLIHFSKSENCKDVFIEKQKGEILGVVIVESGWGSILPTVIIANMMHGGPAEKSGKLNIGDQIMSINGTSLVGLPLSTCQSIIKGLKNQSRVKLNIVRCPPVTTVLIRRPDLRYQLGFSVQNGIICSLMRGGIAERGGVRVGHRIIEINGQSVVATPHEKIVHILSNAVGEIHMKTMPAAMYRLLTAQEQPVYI
Assay type: protein assay
Calls of active or inactive are those of the source.
The following molecules are listed with their measured IC50 values.
readout_type: IC50

[[record]]
molecule = "N#Cc1c(C#N)c(O)c2ccccc2c1O"
readout_type = "IC50"
measured_value = "3.83 µM (active)"

[[record]]
molecule = "N#CC1=C(N)N=C(S)C(C(N)=O)C1c1ccccc1F (stereo not given)"
readout_type = "IC50"
measured_value = "13.6 µM (active)"

[[record]]
molecule = "Cc1cc(=O)oc2cc(OCC(=O)N/N=C/c3cc([N+](=O)[O-])ccc3O)ccc12"
readout_type = "IC50"
measured_value = "> 56.8 µM (not active)"

[[record]]
molecule = "O=C(CNC(=O)/C=C/c1ccco1)N=Nc1c(O)[nH]c2ccccc12"
readout_type = "IC50"
measured_value = "> 56.8 µM (not active)"

[[record]]
molecule = "O=[N+]([O-])c1ccc(-c2cc(-c3ccc(Cl)cc3)n[nH]2)cc1"
readout_type = "IC50"
measured_value = "> 56.8 µM (not active)"

